- MEASURED_TARGET: T1, recombinant human IL-6R sR (R&D systems) (human, UniProt P08887 20-358)
- T1 construct: Bought soluble receptor; also called rhIL-6sR; rhIL-s6R
- T1 sequence (looked up): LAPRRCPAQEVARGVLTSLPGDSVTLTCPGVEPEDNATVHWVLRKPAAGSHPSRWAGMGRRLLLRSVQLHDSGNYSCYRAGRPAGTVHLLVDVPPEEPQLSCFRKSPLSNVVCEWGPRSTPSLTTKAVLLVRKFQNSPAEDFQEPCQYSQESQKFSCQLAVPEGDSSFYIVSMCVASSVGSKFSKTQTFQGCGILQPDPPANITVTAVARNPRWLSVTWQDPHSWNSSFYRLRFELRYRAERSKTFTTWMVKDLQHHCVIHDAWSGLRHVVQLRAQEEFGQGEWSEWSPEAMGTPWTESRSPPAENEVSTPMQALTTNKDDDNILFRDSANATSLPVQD
- TEST_METHOD_NOTES: SPR (Biacore T100), antibody captured on Protein A, rhIL-6sR as analyte, 25 C
PARAMETER_MEASURED: kon (M⁻¹ s⁻¹)
Answer with a number only, understood to be in M⁻¹ s⁻¹.

- BINDER: "RDC-6 (antibody, V domains shown, also called RDC-6H/L(WT)) VH: QVQLQESGPGLVRPSQTLSLTCTVSGYSITSDHAWSWVRQPPGRGLEWIGYISYSGITTYNPSLKSRVTMLRDTSKNQFSLRLSSVTAADTAVYYCARILARITAMDYWGQGSLVTVSS VL: DIQMTQSPSSLSASVGDRVTITCRASQDISSYLNWYQQKPGKAPKLLIYYTSRLHSGVPSRFSGSGSGTDFTFTISSLQPEDIATYYCQQGNTLPYTFGQGTKVEIK"
  kon [M⁻¹ s⁻¹]: "1.2e+06"
- BINDER: "RDC-5 (antibody, V domains shown, also called RDC-5H/L(WT)) VH: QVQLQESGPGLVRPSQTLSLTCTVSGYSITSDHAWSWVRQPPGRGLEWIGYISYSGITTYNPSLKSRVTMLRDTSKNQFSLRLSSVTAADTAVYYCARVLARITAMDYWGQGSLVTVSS VL: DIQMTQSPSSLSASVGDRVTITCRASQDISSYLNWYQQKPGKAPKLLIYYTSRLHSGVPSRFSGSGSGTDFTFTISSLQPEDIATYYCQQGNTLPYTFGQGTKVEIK"
  kon [M⁻¹ s⁻¹]: "1.2e+06"
- BINDER: "RDC-3 (antibody, V domains shown, also called RDC-3H/L(WT)) VH: QVQLQESGPGLVRPSQTLSLTCTVSGYSITSDHAWSWVRQPPGRGLEWIGYISYSGITTYNPSLKSRVTMLRDTSKNQFSLRLSSVTAADTAVYYCARILARATAMDYWGQGSLVTVSS VL: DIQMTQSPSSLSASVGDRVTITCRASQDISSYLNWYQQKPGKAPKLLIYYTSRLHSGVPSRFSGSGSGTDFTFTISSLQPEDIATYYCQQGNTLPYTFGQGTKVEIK"
  kon [M⁻¹ s⁻¹]: "1e+06"
- BINDER: "RDC-4 (antibody, V domains shown, also called RDC-4H/L(WT)) VH: QVQLQESGPGLVRPSQTLSLTCTVSGYSITSDHAWSWVRQPPGRGLEWIGYISYSGITTYNPSLKSRVTMLRDTSKNQFSLRLSSVTAADTAVYYCARTLARATAMDYWGQGSLVTVSS VL: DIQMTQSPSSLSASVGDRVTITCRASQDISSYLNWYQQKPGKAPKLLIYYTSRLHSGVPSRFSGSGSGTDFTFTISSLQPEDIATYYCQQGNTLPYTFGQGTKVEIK"
  kon [M⁻¹ s⁻¹]: "1.1e+06"
- BINDER: "RDC-7 (antibody, V domains shown, also called RDC-7H/L(WT)) VH: QVQLQESGPGLVRPSQTLSLTCTVSGYSITSDHAWSWVRQPPGRGLEWIGYISYSGITTYNPSLKSRVTMLRDTSKNQFSLRLSSVTAADTAVYYCARTLARITAMDYWGQGSLVTVSS VL: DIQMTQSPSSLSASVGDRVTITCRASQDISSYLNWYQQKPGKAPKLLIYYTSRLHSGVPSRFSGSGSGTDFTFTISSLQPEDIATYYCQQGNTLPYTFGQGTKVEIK"
  kon [M⁻¹ s⁻¹]: "1.1e+06"

Req: Query: kon; subject: RDC-11 (antibody, V domains shown, also called H(WT)/RDC-11L) VH: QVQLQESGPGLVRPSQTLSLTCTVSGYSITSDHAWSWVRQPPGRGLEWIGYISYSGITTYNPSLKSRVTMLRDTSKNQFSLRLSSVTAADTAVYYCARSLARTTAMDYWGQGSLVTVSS VL: DIQMTQSPSSLSASVGDRVTITCRASQDISSYLNWYQQKPGKAPKLLIYYTSRLHSGVPSRFSGSGSGTDFTFTISSLQPEDIATYYCGQGNRLPYTFGQGTKVEIK
Resp: 1.1e+06

Req: Ok, now RDC-8 (antibody, V domains shown, also called RDC-8H/L(WT)) VH: QVQLQESGPGLVRPSQTLSLTCTVSGYSITSDHAWSWVRQPPGRGLEWIGYISYSGITTYNPSLKSRVTMLRDTSKNQFSLRLSSVTAADTAVYYCARLLARITAMDYWGQGSLVTVSS VL: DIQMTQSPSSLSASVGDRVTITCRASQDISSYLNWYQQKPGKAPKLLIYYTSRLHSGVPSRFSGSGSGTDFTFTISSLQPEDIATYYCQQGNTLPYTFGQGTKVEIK
Resp: 1.4e+06

Req: Ok, now RDC-23 (antibody, V domains shown, also called RDC-5H/RDC-11L) VH: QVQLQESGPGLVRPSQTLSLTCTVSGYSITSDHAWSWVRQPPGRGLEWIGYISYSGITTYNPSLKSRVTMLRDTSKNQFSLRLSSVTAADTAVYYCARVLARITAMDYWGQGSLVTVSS VL: DIQMTQSPSSLSASVGDRVTITCRASQDISSYLNWYQQKPGKAPKLLIYYTSRLHSGVPSRFSGSGSGTDFTFTISSLQPEDIATYYCGQGNRLPYTFGQGTKVEIK
Resp: 1.2e+06

Req: Ok, now RD-28 (antibody, V domains shown) VH: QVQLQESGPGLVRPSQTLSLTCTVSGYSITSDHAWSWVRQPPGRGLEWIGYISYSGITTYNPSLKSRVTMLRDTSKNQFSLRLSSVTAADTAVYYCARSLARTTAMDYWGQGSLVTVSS VL: DIQMTQSPSSLSASVGDRVTITCRASQDISSYLNWYQQKPGKAPKLLIYYTSRLHSGVPSRFSGSGSGTDFTFTISSLQPEDIATYYCGQGNTLPYTFGQGTKVEIK
Resp: 940000

Req: Ok, now RDC-2 (antibody, V domains shown, also called RDC-2H/L(WT)) VH: QVQLQESGPGLVRPSQTLSLTCTVSGYSITSDHAWSWVRQPPGRGLEWIGYISYSGITTYNPSLKSRVTMLRDTSKNQFSLRLSSVTAADTAVYYCARVLARATAMDYWGQGSLVTVSS VL: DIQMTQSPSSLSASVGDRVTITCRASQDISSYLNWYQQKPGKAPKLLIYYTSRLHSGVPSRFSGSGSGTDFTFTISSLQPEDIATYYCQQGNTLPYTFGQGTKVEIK
Resp: 1.1e+06
